Species: Rattus norvegicus
Assay: Open TG-GATES - Regimen: Single
Assay type: toxicity, organism-based, Sprague-Dawley
Parameters: regimen Single, gender Male, age 6 weeks
Details: in vivo, po, 300 mg/kg, 3 h, tissue Plasma, route gavage, dose level Middle
test-readout: Na (meq/L)
Numbers only, in meq/L.

For orientation, consider the following solved cases.
{"compound": "COC(=O)C1=C(C)NC(C)=C(C(=O)OC)C1c1ccccc1[N+](=O)[O-] [NIFEDIPINE]", "test-readout": "Na", "unit-name": "meq/L", "val": 134.6}
{"compound": "O=C(OC[C@H]1O[C@@H](OC(=O)c2cc(O)c(O)c(OC(=O)c3cc(O)c(O)c(O)c3)c2)[C@H](OC(=O)c2cc(O)c(O)c(OC(=O)c3cc(O)c(O)c(O)c3)c2)[C@@H](OC(=O)c2cc(O)c(O)c(OC(=O)c3cc(O)c(O)c(O)c3)c2)[C@@H]1OC(=O)c1cc(O)c(O)c(OC(=O)c2cc(O)c(O)c(O)c2)c1)c1cc(O)c(O)c(OC(=O)c2cc(O)c(O)c(O)c2)c1 [TANNIC ACID]", "test-readout": "Na", "unit-name": "meq/L", "val": 139.6}
{"compound": "Cc1nnc2n1-c1ccc(Cl)cc1C(c1ccccc1Cl)=NC2 [TRIAZOLAM]", "test-readout": "Na", "unit-name": "meq/L", "val": 141.4}
{"compound": "CN/C(=N/CCSCc1nc[nH]c1C)NC#N [CIMETIDINE]", "test-readout": "Na", "unit-name": "meq/L", "val": 140.8}

Pending compound:
Consider the compound CNC(=C[N+](=O)[O-])NCCSCc1ccc(CN(C)C)o1 [RANITIDINE] . State its measured Na.
141.6

----------
Species: Rattus norvegicus
Assay: Open TG-GATES - Regimen: Single
Format: toxicity, organism-based, Sprague-Dawley
Parameters: regimen Single, gender Male, age 6 weeks
Details: in vivo, po, 100 mg/kg, 24 h, tissue Blood, route gavage, dose level Low
test-readout: APTT

Here are 2 compounds together with their reported answers.
{"mol": "O=C(OC[C@H]1O[C@@H](OC(=O)c2cc(O)c(O)c(OC(=O)c3cc(O)c(O)c(O)c3)c2)[C@H](OC(=O)c2cc(O)c(O)c(OC(=O)c3cc(O)c(O)c(O)c3)c2)[C@@H](OC(=O)c2cc(O)c(O)c(OC(=O)c3cc(O)c(O)c(O)c3)c2)[C@@H]1OC(=O)c1cc(O)c(O)c(OC(=O)c2cc(O)c(O)c(O)c2)c1)c1cc(O)c(O)c(OC(=O)c2cc(O)c(O)c(O)c2)c1", "val": "16.7 s"}
{"mol": "CNC(=C[N+](=O)[O-])NCCSCc1ccc(CN(C)C)o1", "val": "19.4 s"}

# batch size: 3; output APTT per entry
1. CN/C(=N/CCSCc1nc[nH]c1C)NC#N
2. Cc1nnc2n1-c1ccc(Cl)cc1C(c1ccccc1Cl)=NC2
3. COC(=O)C1=C(C)NC(C)=C(C(=O)OC)C1c1ccccc1[N+](=O)[O-]

["19.4 s", "20.1 s", "16.5 s"]

----------
Species on record: Rattus norvegicus
Test: Open TG-GATES - Regimen: Single
Format: toxicity, organism-based, Sprague-Dawley
Parameters: regimen Single, gender Male, age 6 weeks
Details: in vivo, po, 0 mg/kg, 24 h, tissue Plasma, route gavage, dose level Control
Would you mind telling me the reported Ca of each entry?
Please make sure the unit comes right after the number.

Completed entries (count: 5):
{"molecule": "Cc1nnc2n1-c1ccc(Cl)cc1C(c1ccccc1Cl)=NC2 [TRIAZOLAM]", "test-readout": "Ca", "val": "11 mg/dL"}
{"molecule": "CN(C)CCC(c1ccc(Cl)cc1)c1ccccn1 (stereo unspecified) [CHLORPHENIRAMINE]", "test-readout": "Ca", "val": "11 mg/dL"}
{"molecule": "CCOc1ccc(NC(C)=O)cc1 [PHENACETIN]", "test-readout": "Ca", "val": "11.1 mg/dL"}
{"molecule": "CC(C)NNC(=O)c1ccncc1 [IPRONIAZID]", "test-readout": "Ca", "val": "10.9 mg/dL"}
{"molecule": "CN/C(=N/CCSCc1nc[nH]c1C)NC#N [CIMETIDINE]", "test-readout": "Ca", "val": "10.9 mg/dL"}

In the following, a different molecule is considered.
Provide one value: measured Ca of CNC(=C[N+](=O)[O-])NCCSCc1ccc(CN(C)C)o1 [RANITIDINE]
10.8 mg/dL

----------
Species: Rattus norvegicus
Experiment: Open TG-GATES - Regimen: Single
Format: toxicity, organism-based, Sprague-Dawley
Set-up: regimen Single, gender Male, age 6 weeks
Details: in vivo, po, 0 mg/kg, 6 h, tissue Plasma, route gavage, dose level Control
test-readout: ALP (IU/L)
Answers are plain numbers, in IU/L.

Solved cases below.
{"compound": "COC(=O)C1=C(C)NC(C)=C(C(=O)OC)C1c1ccccc1[N+](=O)[O-] [NIFEDIPINE]", "ALP, IU/L": 1485.2}
{"compound": "CCCc1cc(=O)[nH]c(=S)[nH]1 [PROPYLTHIOURACIL]", "ALP, IU/L": 853.4}
{"compound": "O=C(OC[C@H]1O[C@@H](OC(=O)c2cc(O)c(O)c(OC(=O)c3cc(O)c(O)c(O)c3)c2)[C@H](OC(=O)c2cc(O)c(O)c(OC(=O)c3cc(O)c(O)c(O)c3)c2)[C@@H](OC(=O)c2cc(O)c(O)c(OC(=O)c3cc(O)c(O)c(O)c3)c2)[C@@H]1OC(=O)c1cc(O)c(O)c(OC(=O)c2cc(O)c(O)c(O)c2)c1)c1cc(O)c(O)c(OC(=O)c2cc(O)c(O)c(O)c2)c1 [TANNIC ACID]", "ALP, IU/L": 831.4}
{"compound": "CN(C)CCC(c1ccc(Cl)cc1)c1ccccn1 (configuration not stated) [CHLORPHENIRAMINE]", "ALP, IU/L": 1456.6}
{"compound": "Nc1c2c(nc3ccccc13)CCCC2 [TACRINE]", "ALP, IU/L": 1333}

Consider the following items and state reported ALP for each.
1. CN1C(=O)CCS(=O)(=O)C1c1ccc(Cl)cc1 (configuration not stated) [CHLORMEZANONE]
2. CN/C(=N/CCSCc1nc[nH]c1C)NC#N [CIMETIDINE]

1. 1407
2. 902.6

----------
Give MCH for every item shown.
Species on record: Rattus norvegicus
Experiment: Open TG-GATES - Regimen: Single
Format: toxicity, organism-based, Sprague-Dawley
Set-up: regimen Single, gender Male, age 6 weeks
Details: in vivo, po, 100 mg/kg, 3 h, tissue Blood, route gavage, dose level Low
Give bare numbers, in pg.

{"mol": "O=C(OC[C@H]1O[C@@H](OC(=O)c2cc(O)c(O)c(OC(=O)c3cc(O)c(O)c(O)c3)c2)[C@H](OC(=O)c2cc(O)c(O)c(OC(=O)c3cc(O)c(O)c(O)c3)c2)[C@@H](OC(=O)c2cc(O)c(O)c(OC(=O)c3cc(O)c(O)c(O)c3)c2)[C@@H]1OC(=O)c1cc(O)c(O)c(OC(=O)c2cc(O)c(O)c(O)c2)c1)c1cc(O)c(O)c(OC(=O)c2cc(O)c(O)c(O)c2)c1", "MCH [pg]": 22.2}

Record MCH for all entries; do not skip any.
1. COC(=O)C1=C(C)NC(C)=C(C(=O)OC)C1c1ccccc1[N+](=O)[O-]
2. Cc1nnc2n1-c1ccc(Cl)cc1C(c1ccccc1Cl)=NC2

20.6
21

For every item below, please supply its MCH.
1. CN/C(=N/CCSCc1nc[nH]c1C)NC#N
2. CNC(=C[N+](=O)[O-])NCCSCc1ccc(CN(C)C)o1

1. 21.9
2. 22.3

----------
Species on record: Rattus norvegicus
Test: Open TG-GATES - Regimen: Daily Repeat
Type: toxicity, organism-based, Sprague-Dawley
Set-up: regimen Daily Repeat, gender Male, age 6 weeks
Details: in vivo, po, 100 mg/kg, […], tissue Plasma, route gavage, dose level Low, time 7 day
I'd appreciate it if you could supply CRE values for the items below.
One number for each entry, in mg/dL.

# count of solved cases: 5
{"molecule": "Cc1nnc2n1-c1ccc(Cl)cc1C(c1ccccc1Cl)=NC2 [TRIAZOLAM]", "CRE [mg/dL]": 0.2}
{"molecule": "COC(=O)C1=C(C)NC(C)=C(C(=O)OC)C1c1ccccc1[N+](=O)[O-] [NIFEDIPINE]", "CRE [mg/dL]": 0.2}
{"molecule": "O=C(OC[C@H]1O[C@@H](OC(=O)c2cc(O)c(O)c(OC(=O)c3cc(O)c(O)c(O)c3)c2)[C@H](OC(=O)c2cc(O)c(O)c(OC(=O)c3cc(O)c(O)c(O)c3)c2)[C@@H](OC(=O)c2cc(O)c(O)c(OC(=O)c3cc(O)c(O)c(O)c3)c2)[C@@H]1OC(=O)c1cc(O)c(O)c(OC(=O)c2cc(O)c(O)c(O)c2)c1)c1cc(O)c(O)c(OC(=O)c2cc(O)c(O)c(O)c2)c1 [TANNIC ACID]", "CRE [mg/dL]": 0.5}
{"molecule": "CN/C(=N/CCSCc1nc[nH]c1C)NC#N [CIMETIDINE]", "CRE [mg/dL]": 0.4}
{"molecule": "CNC(=C[N+](=O)[O-])NCCSCc1ccc(CN(C)C)o1 [RANITIDINE]", "CRE [mg/dL]": 0.4}

Turning to the following molecule.
Give recorded CRE. CCOc1ccc(NC(C)=O)cc1 [PHENACETIN]
0.2
